assayed target: Platelet-derived growth factor receptor beta (Homo sapiens)
Sequence (P09619 whole entry): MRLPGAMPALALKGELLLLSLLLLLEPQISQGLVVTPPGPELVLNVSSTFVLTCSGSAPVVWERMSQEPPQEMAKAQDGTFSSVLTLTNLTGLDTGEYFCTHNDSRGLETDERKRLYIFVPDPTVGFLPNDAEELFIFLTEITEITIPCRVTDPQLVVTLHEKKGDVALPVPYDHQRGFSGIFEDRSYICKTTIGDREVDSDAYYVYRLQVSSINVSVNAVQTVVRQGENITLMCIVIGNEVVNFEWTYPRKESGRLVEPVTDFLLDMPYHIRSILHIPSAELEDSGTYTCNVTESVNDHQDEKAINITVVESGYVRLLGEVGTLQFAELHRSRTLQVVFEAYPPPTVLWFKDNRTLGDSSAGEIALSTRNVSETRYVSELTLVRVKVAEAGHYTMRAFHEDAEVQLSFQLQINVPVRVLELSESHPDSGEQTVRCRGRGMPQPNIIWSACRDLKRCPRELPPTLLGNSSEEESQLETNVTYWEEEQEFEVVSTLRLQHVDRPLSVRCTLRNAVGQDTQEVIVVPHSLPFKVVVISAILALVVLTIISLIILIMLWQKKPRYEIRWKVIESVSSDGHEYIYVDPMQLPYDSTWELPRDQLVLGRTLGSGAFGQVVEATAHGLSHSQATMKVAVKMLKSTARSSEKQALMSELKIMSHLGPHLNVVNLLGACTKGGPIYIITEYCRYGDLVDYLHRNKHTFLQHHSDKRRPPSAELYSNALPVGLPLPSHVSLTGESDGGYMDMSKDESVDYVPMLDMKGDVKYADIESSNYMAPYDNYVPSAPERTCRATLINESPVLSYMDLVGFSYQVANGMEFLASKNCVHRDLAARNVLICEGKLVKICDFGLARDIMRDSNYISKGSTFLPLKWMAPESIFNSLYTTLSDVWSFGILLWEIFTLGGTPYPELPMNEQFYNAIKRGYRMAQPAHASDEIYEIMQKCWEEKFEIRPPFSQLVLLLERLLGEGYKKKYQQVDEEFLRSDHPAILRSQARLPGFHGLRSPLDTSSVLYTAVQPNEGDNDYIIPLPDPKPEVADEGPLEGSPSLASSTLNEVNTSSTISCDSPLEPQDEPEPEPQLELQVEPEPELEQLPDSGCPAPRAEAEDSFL
readout label: IC50 (nM)
One number for each entry, in nM.

Asked: Bench note: what IC50 did COc1cc2ncnc(Nc3ccc(F)c(Cl)c3)c2cc1NC(=O)/C(F)=C/CN(C)C show?
Given back: 2100

* * *

assayed target: Epidermal growth factor receptor (Homo sapiens, UniProt P00533);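 note: inhibition of wild-type EGFR read out by HTRF, with a 5 min incubation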
Sequence (P00533 whole entry): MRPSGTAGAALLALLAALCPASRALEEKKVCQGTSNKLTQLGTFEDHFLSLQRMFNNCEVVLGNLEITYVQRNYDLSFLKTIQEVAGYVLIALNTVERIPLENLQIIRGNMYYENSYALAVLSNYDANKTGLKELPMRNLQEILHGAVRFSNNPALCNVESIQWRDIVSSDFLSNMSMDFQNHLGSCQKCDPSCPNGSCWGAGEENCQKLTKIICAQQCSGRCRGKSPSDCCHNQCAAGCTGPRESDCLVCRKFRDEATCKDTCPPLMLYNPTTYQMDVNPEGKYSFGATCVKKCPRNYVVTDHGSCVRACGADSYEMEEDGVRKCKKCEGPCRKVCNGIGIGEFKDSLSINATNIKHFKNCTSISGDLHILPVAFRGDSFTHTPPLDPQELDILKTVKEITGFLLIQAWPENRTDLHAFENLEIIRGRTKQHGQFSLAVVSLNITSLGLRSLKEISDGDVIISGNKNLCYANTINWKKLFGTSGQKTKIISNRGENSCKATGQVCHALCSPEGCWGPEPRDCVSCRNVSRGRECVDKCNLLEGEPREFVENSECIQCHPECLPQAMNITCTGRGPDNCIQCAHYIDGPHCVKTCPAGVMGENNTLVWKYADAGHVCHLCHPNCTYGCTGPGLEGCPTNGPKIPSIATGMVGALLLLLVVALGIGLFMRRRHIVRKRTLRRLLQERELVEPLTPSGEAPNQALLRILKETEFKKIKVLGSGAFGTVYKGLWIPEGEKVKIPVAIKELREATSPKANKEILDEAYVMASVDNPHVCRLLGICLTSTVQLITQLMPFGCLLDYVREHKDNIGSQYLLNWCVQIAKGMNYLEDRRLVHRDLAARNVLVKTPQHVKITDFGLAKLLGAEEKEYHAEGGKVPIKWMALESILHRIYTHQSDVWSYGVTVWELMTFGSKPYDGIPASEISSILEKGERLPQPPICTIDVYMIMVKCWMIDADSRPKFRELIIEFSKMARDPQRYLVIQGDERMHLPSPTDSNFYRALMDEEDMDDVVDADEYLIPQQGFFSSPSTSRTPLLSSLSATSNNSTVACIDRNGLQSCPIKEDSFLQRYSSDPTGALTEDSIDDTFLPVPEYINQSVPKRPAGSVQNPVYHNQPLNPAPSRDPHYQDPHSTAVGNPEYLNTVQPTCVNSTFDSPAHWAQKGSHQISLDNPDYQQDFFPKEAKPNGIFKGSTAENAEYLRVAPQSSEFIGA
readout label: IC50 (nM)
Give bare numbers, in nM.

Some solved cases for reference:
>  <cpd smiles>
CCOc1cc2ncnc(Nc3ccc(Oc4ccc(C)nc4)c(Cl)c3)c2cc1NC(=O)/C(F)=C\CN(C)C

>  <readout label>
IC50

>  <endpoint unit>
nM

>  <val>
9.5

$$$$
>  <cpd smiles>
COc1cc2ncnc(Nc3ccc(OCc4cccc(F)c4)c(Cl)c3)c2cc1NC(=O)/C(F)=C/CN(C)C

>  <readout label>
IC50

>  <endpoint unit>
nM

>  <val>
1.56

$$$$
>  <cpd smiles>
COc1cc2ncnc(Nc3cccc(Br)c3)c2cc1NC(=O)/C(F)=C\CN(C)C

>  <readout label>
IC50

>  <endpoint unit>
nM

>  <val>
5

$$$$

Asked: Bench note: what IC50 did COc1cc2ncnc(Nc3ccc(OCc4cccc(F)c4)c(Cl)c3)c2cc1NC(=O)/C(F)=C\CN(C)C show?
Given back: 1.3
